Test system Sodium-dependent serotonin transporter (Rattus norvegicus), Ki listed for each of the compounds.
Quantity Measured: Ki

> print(dat)
                                   compound  quantity.measured  reported.measurement
1  COC(=O)[C@H](c1ccc(C)cc1)[C@H]1CCCN1 (racemic)                 Ki               > 10 µM
2  COC(=O)[C@H](c1ccccc1)[C@@H]1CCCN1 (racemic)                 Ki               > 10 µM
3  COC(=O)[C@H](c1ccc(Br)cc1)[C@@H]1CCCN1 (racemic)                 Ki               > 10 µM
4  COC(=O)[C@H](c1ccc(C)cc1)[C@@H]1CCCN1 (racemic)                 Ki               > 10 µM
5  COC(=O)[C@H](c1ccccc1)[C@H]1CCCN1 (racemic)                 Ki               > 10 µM
